Where these numbers come from: patent US20140274782A1

A collection of molecules and their measured Relative to UNC0638 UNC Light
Target: T1, G9a and GLP (Homo sapiens, UniProt Q96KQ7+Q9H9B1)
T1 sequence (Q96KQ7 2-1210 limits assumed): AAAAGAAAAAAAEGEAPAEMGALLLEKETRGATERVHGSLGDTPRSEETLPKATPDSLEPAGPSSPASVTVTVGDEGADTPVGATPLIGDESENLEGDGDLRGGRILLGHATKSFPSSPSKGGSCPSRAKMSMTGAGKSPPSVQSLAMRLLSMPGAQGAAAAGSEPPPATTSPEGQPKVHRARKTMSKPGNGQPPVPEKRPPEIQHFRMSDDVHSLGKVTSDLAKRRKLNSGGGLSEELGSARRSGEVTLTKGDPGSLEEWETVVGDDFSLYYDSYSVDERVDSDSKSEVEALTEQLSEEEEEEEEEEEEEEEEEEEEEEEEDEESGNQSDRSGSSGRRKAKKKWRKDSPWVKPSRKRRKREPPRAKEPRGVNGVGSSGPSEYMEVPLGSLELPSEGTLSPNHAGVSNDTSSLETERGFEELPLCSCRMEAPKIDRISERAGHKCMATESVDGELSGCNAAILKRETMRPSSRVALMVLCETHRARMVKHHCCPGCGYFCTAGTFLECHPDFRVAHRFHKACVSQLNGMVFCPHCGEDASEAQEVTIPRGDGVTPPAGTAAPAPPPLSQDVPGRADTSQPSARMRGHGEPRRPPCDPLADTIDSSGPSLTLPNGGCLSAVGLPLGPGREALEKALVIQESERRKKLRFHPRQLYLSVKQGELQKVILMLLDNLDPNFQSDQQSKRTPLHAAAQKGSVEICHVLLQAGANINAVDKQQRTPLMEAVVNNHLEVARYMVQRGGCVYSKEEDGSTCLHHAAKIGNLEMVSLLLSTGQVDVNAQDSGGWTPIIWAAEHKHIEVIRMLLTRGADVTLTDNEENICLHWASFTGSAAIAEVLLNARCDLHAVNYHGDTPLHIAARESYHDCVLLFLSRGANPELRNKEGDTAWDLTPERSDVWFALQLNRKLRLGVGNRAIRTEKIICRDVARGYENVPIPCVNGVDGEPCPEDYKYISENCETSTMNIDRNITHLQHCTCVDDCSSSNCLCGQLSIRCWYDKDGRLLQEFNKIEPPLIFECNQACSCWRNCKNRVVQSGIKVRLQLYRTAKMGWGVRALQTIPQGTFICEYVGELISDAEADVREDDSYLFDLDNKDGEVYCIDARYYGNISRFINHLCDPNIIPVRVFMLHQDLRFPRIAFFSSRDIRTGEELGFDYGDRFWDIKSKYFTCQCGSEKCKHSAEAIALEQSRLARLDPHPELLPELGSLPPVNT
T1 sequence (Q9H9B1 2-1298 limits assumed): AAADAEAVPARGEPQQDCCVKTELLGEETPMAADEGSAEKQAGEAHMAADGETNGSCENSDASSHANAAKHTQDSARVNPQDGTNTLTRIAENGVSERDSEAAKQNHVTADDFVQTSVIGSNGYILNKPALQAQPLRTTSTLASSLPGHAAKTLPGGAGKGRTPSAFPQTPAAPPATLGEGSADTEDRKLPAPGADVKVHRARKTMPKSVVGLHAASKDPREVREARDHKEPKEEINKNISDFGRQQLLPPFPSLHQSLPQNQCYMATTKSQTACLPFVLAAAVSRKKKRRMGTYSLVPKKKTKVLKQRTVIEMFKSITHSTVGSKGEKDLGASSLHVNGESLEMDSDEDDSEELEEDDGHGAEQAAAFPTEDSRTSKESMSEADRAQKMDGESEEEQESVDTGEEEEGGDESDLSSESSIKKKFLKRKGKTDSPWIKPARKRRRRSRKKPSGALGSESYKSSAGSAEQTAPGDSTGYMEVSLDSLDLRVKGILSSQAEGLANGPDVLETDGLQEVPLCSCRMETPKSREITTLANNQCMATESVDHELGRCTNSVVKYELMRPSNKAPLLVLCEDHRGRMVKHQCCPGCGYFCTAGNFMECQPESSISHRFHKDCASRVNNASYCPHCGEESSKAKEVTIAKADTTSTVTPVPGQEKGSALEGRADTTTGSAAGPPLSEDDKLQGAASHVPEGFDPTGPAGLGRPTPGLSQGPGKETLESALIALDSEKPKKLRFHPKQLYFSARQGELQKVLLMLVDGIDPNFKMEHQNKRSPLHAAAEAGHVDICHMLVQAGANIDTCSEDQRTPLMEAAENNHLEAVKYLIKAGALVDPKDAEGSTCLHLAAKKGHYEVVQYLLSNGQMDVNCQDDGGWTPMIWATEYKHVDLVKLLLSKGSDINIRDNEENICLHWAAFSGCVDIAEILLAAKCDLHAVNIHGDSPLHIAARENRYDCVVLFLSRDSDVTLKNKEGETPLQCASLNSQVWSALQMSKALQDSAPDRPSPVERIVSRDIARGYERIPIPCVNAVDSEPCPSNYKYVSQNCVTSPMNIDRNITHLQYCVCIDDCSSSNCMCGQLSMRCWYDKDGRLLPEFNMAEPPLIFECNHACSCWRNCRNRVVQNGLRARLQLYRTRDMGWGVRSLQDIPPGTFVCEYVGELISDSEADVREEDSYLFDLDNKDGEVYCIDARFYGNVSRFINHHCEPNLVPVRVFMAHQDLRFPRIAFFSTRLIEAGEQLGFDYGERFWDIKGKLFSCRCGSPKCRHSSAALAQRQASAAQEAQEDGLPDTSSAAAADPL
Assay: Triple SILAC pull-down after UNC0638 treatment of 293T cells, DMSO/UNC0638 ratio of protein captured by 3×MBT;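 note: mass spectrometry (Q-Exactive) SILAC quantitation, DMSO/UNC0638 ratio computed after subtracting 3×MBTD355N mutant pull-down background, only proteins with at least twofold 3×MBT over mutant signal considered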
Format: cell-based
Set-up: endogenous in cells; host or cells: HEK 293T
Settings: SILAC ratio DMSO/UNC0638 of protein pulled down with 3xMBT; UNC0638 in light SILAC media
measurement_label: Relative to UNC0638 UNC Light (log base 2)

>>> result_number("U2AF1 (protein, UniProt Q01081 2-240, looked up) Splicing factor U2AF 35 kDa …: AEYLASIFGTEKDKVNCSFYFKIGACRHGDRCSRLHNKPTFSQTIALLNIYRNPQNSSQSADGLRCAVSDVEMQEHYDEFFEEVFTEMEEKYGEVEEMNVCDNLGDHLVGNVYVKFRREEDAEKAVIDLNNRWFNGQPIHAELSPVTDFREACCRQYEMGECTRGGFCNFMHLKPISRELRRELYGRRRKKHRSRSRSRERRSRSRDRGRGGGGGGGGGGGGRERDRRRSRDRERSGRF")
0.08
>>> result_number("GNB1L (protein, UniProt Q9BYB4 1-327, looked up) Guanine nucleotide-binding …: MTAPCPPPPPDPQFVLRGTQSPVHALHFCEGAQAQGRPLLFSGSQSGLVHIWSLQTRRAVTTLDGHGGQCVTWLQTLPQGRQLLSQGRDLKLCLWDLAEGRSAVVDSVCLESVGFCRSSILAGGQPRWTLAVPGRGSDEVQILEMPSKTSVCALKPKADAKLGMPMCLRLWQADCSSRPLLLAGYEDGSVVLWDVSEQKVCSRIACHEEPVMDLDFDSQKARGISGSAGKALAVWSLDWQQALQVRGTHELTNPGIAEVTIRPDRKILATAGWDHRIRVFHWRTMQPLAVLAFHSAAVQCVAFTADGLLAAGSKDQRISLWSLYPRA")
0.12
